# study target: PKCb2 (Homo sapiens, UniProt P05771)
# Sequence (P05771 1-673 isoform P05771-2): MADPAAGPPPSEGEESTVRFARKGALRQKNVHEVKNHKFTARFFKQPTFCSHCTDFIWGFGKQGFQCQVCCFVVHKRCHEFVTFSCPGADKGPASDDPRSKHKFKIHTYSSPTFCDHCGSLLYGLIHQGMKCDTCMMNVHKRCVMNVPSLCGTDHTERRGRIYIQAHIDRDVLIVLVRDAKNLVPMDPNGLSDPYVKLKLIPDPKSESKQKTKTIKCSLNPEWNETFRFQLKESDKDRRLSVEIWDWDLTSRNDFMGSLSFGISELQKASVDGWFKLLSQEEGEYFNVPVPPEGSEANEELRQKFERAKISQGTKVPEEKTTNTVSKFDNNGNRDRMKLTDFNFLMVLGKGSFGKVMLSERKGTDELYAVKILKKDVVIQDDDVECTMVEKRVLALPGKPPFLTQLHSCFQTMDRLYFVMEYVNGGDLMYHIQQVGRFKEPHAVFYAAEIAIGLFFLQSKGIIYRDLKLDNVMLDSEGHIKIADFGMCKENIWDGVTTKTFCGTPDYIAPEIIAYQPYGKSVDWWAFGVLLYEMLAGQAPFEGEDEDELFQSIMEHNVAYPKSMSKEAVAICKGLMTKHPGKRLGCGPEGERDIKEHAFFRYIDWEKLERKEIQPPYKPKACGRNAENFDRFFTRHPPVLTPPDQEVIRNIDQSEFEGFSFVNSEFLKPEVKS
# experiment: Kinase Selectivity Assay (CEREP, HTRF)
# Type: biochemical
# conditions used: read-out: % Inhibition at 10 μM Concentration, PKCbeta 2
endpoint: inhibition at 10 µM
Numeric answer plus unit only.

Sample answers from the record:
* O=C1Nc2ccccc2C1=Cc1ccc2c(/C=C/c3ccccn3)n[nH]c2c1 (mixture of isomers) | 12%
* O=C1Nc2ccccc2/C1=C\c1ccc2c(/C=C/c3ccccc3Cl)n[nH]c2c1 | 4%

Query: Would you mind telling me what inhibition at 10 µM value was observed for O=C1Nc2ccccc2/C1=C\c1ccc2cn[nH]c2c1 ?
Reply: 2%

* * *

I'd be grateful if you could share measured inhibition at 10 µM for these entries.
# study target: Src kinase (Homo sapiens, UniProt P12931)
# Sequence (P12931 whole entry): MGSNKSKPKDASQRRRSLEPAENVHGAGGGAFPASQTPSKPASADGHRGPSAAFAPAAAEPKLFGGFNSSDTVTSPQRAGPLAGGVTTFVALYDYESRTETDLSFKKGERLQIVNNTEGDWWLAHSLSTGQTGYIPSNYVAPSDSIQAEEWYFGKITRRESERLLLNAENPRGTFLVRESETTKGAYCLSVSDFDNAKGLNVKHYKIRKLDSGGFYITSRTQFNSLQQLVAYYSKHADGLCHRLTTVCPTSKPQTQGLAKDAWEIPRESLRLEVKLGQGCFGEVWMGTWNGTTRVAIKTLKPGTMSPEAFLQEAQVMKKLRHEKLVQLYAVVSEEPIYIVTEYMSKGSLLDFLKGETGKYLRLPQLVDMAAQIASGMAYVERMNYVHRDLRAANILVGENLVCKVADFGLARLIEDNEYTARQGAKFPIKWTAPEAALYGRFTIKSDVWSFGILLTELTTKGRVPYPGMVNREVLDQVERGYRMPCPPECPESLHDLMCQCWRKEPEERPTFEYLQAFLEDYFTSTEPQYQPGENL
# experiment: Kinase Selectivity Assay (CEREP, HTRF)
# Assay type: biochemical
# conditions used: read-out: % Inhibition at 10 μM Concentration, Src
One number for each entry, in %.

Each compound below has a reported value. Please supply its inhibition at 10 µM.
1. O=C1Nc2ccccc2C1=Cc1ccc2c(/C=C/c3ccccn3)n[nH]c2c1 (mixture of isomers) [Example A41]
2. O=C1Nc2ccccc2/C1=C\c1ccc2[nH]nnc2c1 [Example A1]
3. COc1ccc2c(c1)C(=Cc1ccc3c(-c4ccc(N5CCN(C)CC5)nc4)n[nH]c3c1)C(=O)N2 (mixture of isomers) [Example A97]

Reply:
59
10
24

* * *

# study target: Aurora A (Homo sapiens, UniProt O14965)
# Sequence (O14965 1-403): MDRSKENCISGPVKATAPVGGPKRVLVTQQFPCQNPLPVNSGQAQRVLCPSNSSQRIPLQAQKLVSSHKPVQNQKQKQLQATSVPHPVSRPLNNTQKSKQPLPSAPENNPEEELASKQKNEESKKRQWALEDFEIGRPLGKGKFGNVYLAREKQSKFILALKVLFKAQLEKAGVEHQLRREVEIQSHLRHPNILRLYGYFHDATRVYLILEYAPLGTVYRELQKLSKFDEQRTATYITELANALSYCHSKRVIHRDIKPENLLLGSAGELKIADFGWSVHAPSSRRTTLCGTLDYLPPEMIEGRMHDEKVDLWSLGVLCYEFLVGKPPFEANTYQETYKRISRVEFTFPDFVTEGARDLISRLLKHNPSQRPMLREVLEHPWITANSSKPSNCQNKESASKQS
pIC50: −log10 of the molar value.
endpoint: pIC50

Sample answers from the record:
* O=C1Nc2ccc(Br)cc2C1=Cc1ccc2c(/C=C/c3cccnc3)n[nH]c2c1 (mixture of isomers) | > 5.30
* O=C1Nc2ncc(Br)cc2C1=Cc1ccc2c(/C=C/c3cccnc3)n[nH]c2c1 (mixture of isomers) | > 5.30
* Nc1ccc2c(c1)NC(=O)/C2=C/c1ccc2cn[nH]c2c1 [Example A38, 2,2,2-trifluoroacetate] | 4.30 to 5.30

Let us move to another entry and its pIC50.
Query: Recall the recorded pIC50 for COc1ccc2c(c1)C(=Cc1ccc3c(/C=C/c4ccc(CN(C)C)cc4)n[nH]c3c1)C(=O)N2 (stereo in doubt) [Example A136b, 2,2,2-trifluoroacetate] with Aurora A (Homo sapiens, UniProt O14965) and state it.
Reply: > 5.30

* * *

The reader will find GI50 measurements below, all made with SKBR3 breast cancer cell line.

• O=C1Nc2ccccc2C1=Cc1ccc2c(/C=C/c3ccccn3)n[nH]c2c1 (mixture of isomers) = < 5 µM
• CN1CCN(c2ccc(/C=C/c3n[nH]c4cc(C=C5C(=O)Nc6ccccc65)ccc34)cn2)CC1 (mixture of isomers) = < 5 µM

Let us move to another entry and its GI50.
Query: Recall the recorded GI50 for O=C1Nc2ncc(Br)cc2C1=Cc1ccc2c(/C=C/c3ccncc3)n[nH]c2c1 (mixture of isomers) with SKBR3 breast cancer cell line and state it.
Reply: > 50 µM

* * *

# study target: MAPKAPK2 (Homo sapiens, UniProt P49137)
# Sequence (P49137 whole entry): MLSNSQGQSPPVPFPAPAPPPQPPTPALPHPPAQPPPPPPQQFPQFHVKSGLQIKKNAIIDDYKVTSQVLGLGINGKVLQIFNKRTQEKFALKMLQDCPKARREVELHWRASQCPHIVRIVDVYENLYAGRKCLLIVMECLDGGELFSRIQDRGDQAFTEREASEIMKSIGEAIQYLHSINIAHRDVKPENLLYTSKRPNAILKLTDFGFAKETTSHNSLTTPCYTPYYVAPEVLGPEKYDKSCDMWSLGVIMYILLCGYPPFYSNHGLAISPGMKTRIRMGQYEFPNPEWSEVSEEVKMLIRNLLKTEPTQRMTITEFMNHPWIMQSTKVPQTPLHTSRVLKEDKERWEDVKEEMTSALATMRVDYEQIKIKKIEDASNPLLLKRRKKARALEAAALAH
# experiment: Kinase Selectivity Assay (CEREP, HTRF)
# Assay type: biochemical
# conditions used: read-out: % Inhibition at 10 μM Concentration, MAPKAPK2
I'd be grateful if you could share measured inhibition at 10 µM for these entries.
Numeric answer plus unit only.

- O=C1Nc2ccccc2C1=Cc1ccc2c(/C=C/c3ccccn3)n[nH]c2c1 (mixture of isomers): 0%
- O=C1Nc2ccccc2/C1=C\c1ccc2[nH]nnc2c1: 6%
- COc1ccc2c(c1)C(=Cc1ccc3c(-c4ccc(N5CCN(C)CC5)nc4)n[nH]c3c1)C(=O)N2 (mixture of isomers): 4%

Let us move to another entry and its inhibition at 10 µM.
Query: Would you mind telling me what inhibition at 10 µM value was observed for O=C1Nc2ccccc2/C1=C\c1ccc2c(/C=C/c3ccccc3Cl)n[nH]c2c1 ?
Reply: 19%

* * *

# study target: PLK2 (Homo sapiens, UniProt Q9NYY3)
# Construct: purchased Invitrogen PV4204
# Sequence (Q9NYY3 whole entry): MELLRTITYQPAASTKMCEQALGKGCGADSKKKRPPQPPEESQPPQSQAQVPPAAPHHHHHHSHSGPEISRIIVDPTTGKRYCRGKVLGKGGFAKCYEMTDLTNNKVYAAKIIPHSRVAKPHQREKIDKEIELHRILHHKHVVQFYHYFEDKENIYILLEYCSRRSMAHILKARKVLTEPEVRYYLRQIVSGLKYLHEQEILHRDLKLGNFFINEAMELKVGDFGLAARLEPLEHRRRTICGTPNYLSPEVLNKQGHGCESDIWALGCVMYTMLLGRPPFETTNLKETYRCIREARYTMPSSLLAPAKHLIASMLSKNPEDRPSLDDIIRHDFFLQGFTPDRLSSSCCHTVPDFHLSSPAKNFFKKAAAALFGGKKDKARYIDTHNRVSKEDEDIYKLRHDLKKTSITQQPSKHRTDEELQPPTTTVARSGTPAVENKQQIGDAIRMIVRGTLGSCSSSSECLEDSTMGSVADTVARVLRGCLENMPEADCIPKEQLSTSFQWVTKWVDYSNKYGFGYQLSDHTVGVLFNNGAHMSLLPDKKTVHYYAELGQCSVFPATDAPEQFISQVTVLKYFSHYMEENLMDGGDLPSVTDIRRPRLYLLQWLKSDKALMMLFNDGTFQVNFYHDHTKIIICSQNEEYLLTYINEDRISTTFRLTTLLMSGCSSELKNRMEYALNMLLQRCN
# experiment: PLK2 Inhibition Assay (Z-Lyte)
# Format: biochemical
# conditions used: 10 μM compound; read-out: PLK2 relative inhibition percentage at a dose of 10 μM
endpoint: inhibition at 10 µM

• COc1ccccc1/C=C/c1n[nH]c2cc(C=C3C(=O)Nc4ccccc43)ccc12 (mixture of isomers) = < 50%

Each molecule below has a reported value. Please supply its inhibition at 10 µM.
1. COC(=O)/C=C/c1n[nH]c2cc(/C=C3/C(=O)Nc4ccccc43)ccc12
2. COc1ccc2c(c1)/C(=C\c1ccc3c(-c4ccc(N5CCOCC5)nc4)n[nH]c3c1)C(=O)N2
3. O=C1Nc2c(Cl)cccc2/C1=C\c1ccc2cn[nH]c2c1

Reply:
["< 50%", "< 50%", "> 50%"]

Each molecule below has a reported value. Please supply its inhibition at 10 µM.
1. CC(=O)Nc1ccc2c(c1)/C(=C\c1ccc3cn[nH]c3c1)C(=O)N2
2. O=C1Nc2ccc(Br)cc2/C1=C\c1ccc2[nH]nnc2c1

Reply:
1: > 50%; 2: > 50%
